All figures here come from ChEMBL document CHEMBL5518181.

Experiment: Cytotoxicity against human HepG2 cells incubated for 40 hrs by celltiter-glo luminescent cell viability assay
Format: toxicity, cell-based
Kindly state IC50 at 40 h for each of the entries shown.

Query :: # IC50 at 40 h lookup, item "CC[C@H](C)[C@@H](NC(=O)[C@@H](NC(=O)[C@H](CCC(=O)O)NC(=O)[C@H](Cc1ccccc1)NC(=O)[C@@H](CCN)NC(=O)[C@H](CCN)NC(=O)[C@H](CO)NC(=O)[C@@H](Cc1c[nH]c2ccccc12)NC(=O)[C@@H](CO)NC(=O)CNC(=O)[C@@H](C)NC(=O)[C@H](N)C(C)C)C(C)C)C(=O)N[C@@H](C)C(=O)O"
Result :: > 170 µg/mL

Query :: # IC50 at 40 h lookup, item "CC[C@H](C)[C@@H](NC(=O)[C@@H](NC(=O)[C@H](CCC(=O)O)NC(=O)[C@H](Cc1c[nH]c2ccccc12)NC(=O)[C@@H](CCN)NC(=O)[C@H](CCN)NC(=O)[C@H](CO)NC(=O)[C@@H](Cc1c[nH]c2ccccc12)NC(=O)[C@@H](CO)NC(=O)CNC(=O)[C@@H](CCN)NC(=O)[C@H](N)C(C)C)C(C)C)C(=O)N[C@@H](C)C(=O)O"
Result :: > 170 µg/mL

Query :: # IC50 at 40 h lookup, item "CC[C@H](C)[C@@H](NC(=O)[C@@H](NC(=O)[C@H](CCC(=O)O)NC(=O)[C@H](Cc1ccccc1)NC(=O)[C@@H](CCN)NC(=O)[C@H](CCN)NC(=O)[C@H](CO)NC(=O)[C@@H](Cc1c[nH]c2ccccc12)NC(=O)[C@@H](CO)NC(=O)CNC(=O)[C@@H](CCN)NC(=O)[C@@H](C)NC(=O)[C@H](C)N)C(C)C)C(=O)N[C@@H](C)C(=O)O"
Result :: > 170 µg/mL

###

Kindly state IC50 at 40 h for each of the entries shown.
Assay: Cytotoxicity against human HepG2 cells incubated for 40 hrs by celltiter-glo luminescent cell viability assay
Format: toxicity, cell-based

Query :: # IC50 at 40 h lookup, item "CC[C@H](C)[C@@H](NC(=O)[C@@H](NC(=O)[C@H](CCC(=O)O)NC(=O)[C@H](Cc1ccccc1)NC(=O)[C@@H](CCN)NC(=O)[C@H](CCN)NC(=O)[C@H](CO)NC(=O)[C@@H](Cc1c[nH]c2ccccc12)NC(=O)[C@@H](CO)NC(=O)CNC(=O)[C@@H](CCN)NC(=O)[C@H](NC(=O)CN)C(C)C)C(C)C)C(=O)N[C@@H](C)C(=O)O"
Result :: > 70 µg/mL

Query :: # IC50 at 40 h lookup, item "CC[C@H](C)[C@@H](NC(=O)[C@@H](NC(=O)[C@H](CCC(=O)O)NC(=O)[C@H](Cc1ccccc1)NC(=O)[C@@H](CCN)NC(=O)[C@H](CCN)NC(=O)[C@H](CO)NC(=O)[C@@H](Cc1c[nH]c2ccccc12)NC(=O)[C@@H](CO)NC(=O)CNC(=O)[C@@H](CCN)NC(=O)[C@H](NC(=O)[C@@H](N)CC(=O)O)C(C)C)C(C)C)C(=O)N[C@@H](C)C(=O)O"
Result :: > 170 µg/mL

Query :: # IC50 at 40 h lookup, item "CC[C@H](C)[C@@H](NC(=O)[C@@H](NC(=O)[C@H](CCC(=O)O)NC(=O)[C@H](Cc1ccccc1)NC(=O)[C@@H](CCN)NC(=O)[C@H](CCN)NC(=O)[C@H](CO)NC(=O)[C@@H](Cc1c[nH]c2ccccc12)NC(=O)[C@@H](CO)NC(=O)CNC(=O)[C@H](N)CCN)C(C)C)C(=O)N[C@@H](C)C(=O)O"
Result :: > 170 µg/mL

###

Assay: Hemolytic activity in human red blood cells at 400 ug/ml incubated for 45 mins by spectrophotometric analysis relative to control
Assay type: toxicity, cell-based, Erythrocyte
Conditions: red blood cells (erythrocytes), at 400 µg/mL, read-out: Activity
Assign label 1 whenever hemolysis at 0.75 h, 400 ug/ml does not fall below 0.4%; assign label 0 whenever it does.

Query :: Is it the case that "CC[C@H](C)[C@@H](NC(=O)[C@@H](NC(=O)[C@H](CCC(=O)O)NC(=O)[C@H](Cc1ccccc1)NC(=O)[C@@H](CCN)NC(=O)[C@H](CCN)NC(=O)[C@H](CO)NC(=O)[C@@H](Cc1c[nH]c2ccccc12)NC(=O)[C@@H](CO)NC(=O)CNC(=O)[C@@H](CCN)NC(=O)[C@H](N)C(C)C)C(C)(C)C)C(=O)N[C@@H](C)C(N)=O" has hemolysis at 0.75 h, 400 ug/ml reaching or exceeding 0.4%?
Result :: label 1

Query :: Is it the case that "CC[C@H](C)[C@@H](NC(=O)[C@@H](NC(=O)[C@H](CCC(=O)O)NC(=O)[C@H](Cc1ccccc1)NC(=O)[C@@H](CCN)NC(=O)[C@H](CCN)NC(=O)[C@H](CO)NC(=O)[C@@H](C)NC(=O)[C@@H](CO)NC(=O)CNC(=O)[C@@H](CCN)NC(=O)[C@H](NC(=O)[C@H](C)N)C(C)C)C(C)C)C(=O)N[C@@H](C)C(=O)O" has hemolysis at 0.75 h, 400 ug/ml reaching or exceeding 0.4%?
Result :: label 0

Query :: Is it the case that "CC[C@H](C)[C@@H](NC(=O)[C@@H](NC(=O)[C@H](CCC(=O)O)NC(=O)[C@H](Cc1ccccc1)NC(=O)[C@@H](CCN)NC(=O)[C@H](CCN)NC(=O)[C@H](CO)NC(=O)[C@@H](Cc1c[nH]c2ccccc12)NC(=O)[C@@H](CO)NC(=O)CNC(=O)[C@@H](CCN)NC(=O)[C@@H](C)NC(=O)[C@H](C)N)C(C)C)C(=O)N[C@@H](C)C(=O)O" has hemolysis at 0.75 h, 400 ug/ml reaching or exceeding 0.4%?
Result :: label 1

Query :: Is it the case that "CC(C)[C@H](NC(=O)[C@H](CCC(=O)O)NC(=O)[C@H](Cc1ccccc1)NC(=O)[C@@H](CCN)NC(=O)[C@H](CCN)NC(=O)[C@H](CO)NC(=O)[C@@H](Cc1c[nH]c2ccccc12)NC(=O)[C@@H](CO)NC(=O)CNC(=O)[C@@H](CCN)NC(=O)[C@H](NC(=O)[C@H](C)N)C(C)C)C(=O)N[C@H](C)C(=O)N[C@@H](C)C(=O)O" has hemolysis at 0.75 h, 400 ug/ml reaching or exceeding 0.4%?
Result :: label 1

Query :: Is it the case that "CC[C@H](C)[C@@H](NC(=O)[C@@H](NC(=O)[C@H](CCC(=O)O)NC(=O)[C@H](Cc1ccccc1)NC(=O)[C@@H](CCN)NC(=O)[C@H](CCN)NC(=O)[C@H](CO)NC(=O)[C@@H](Cc1c[nH]c2ccccc12)NC(=O)[C@@H](CO)NC(=O)CNC(=O)[C@@H](CCN)NC(=O)[C@H](NC(=O)CN)C(C)C)C(C)C)C(=O)N[C@@H](C)C(=O)O" has hemolysis at 0.75 h, 400 ug/ml reaching or exceeding 0.4%?
Result :: label 0
